# Test name: yeast display, Sf9 membrane polyspecificity reagent, FACS + sequencing; frameworks hold sequencing errors
Readout kind: polyreactivity (PSR sort gate)

Solved cases below.
Biopolymer sequence	Result
QVQLVESGGGLVQAGGSLRLSCAASGSTFRTYAMGWYRQAPGKERELVAVISASGGSTYYADSVKGRFTISRDNAKNTVYLQMNSLKPEDTAVYYCAVAYSRGRYYYWGQGTQVTVSS	high polyreactivity
QVQLVESGGGLVQAGGSLRLSCAASGSIFHYNAMGWYIQAPGKERELVASISSGGRTYYADSVKGRFTISRDNAKNTVYLQMNSLKPEDTAVYYCAAENFWQTKEYDYWGQGTQVTVSS	low polyreactivity
QVHLVESAGGLVQAGGSLRLRCDASGRTFVLYTMGWYRQAPGKERELVAAIYGSGGRTYYADSVKGRLTISRDNAKNTVYLQMNSLKPEDTAVYYCAAYCQGLPLYGYWGQGTQVTVSS	high polyreactivity
QVQLVESGGGLVQAGGSLRLSCAPSGRTLRGYAMGWYRQAPGKEREFVAAISSRGGSTYYADSVKGRFTISRDNAKNTVYLQMHSLKPEDTAVYYCAALRPLFATSHARDYWGQGTQVTVSS	high polyreactivity

Item: `QVQLVESGGGLVHAGGSLRLSCAASGSTFYGYTMGWYRQAPGKERELVAVITSGGSTYYADSVKGRFTISRDNAKNTVYLQMNSLKPEDTAVYYCAKRYGYPAYGRPWRIGRTYDYWGQGTQVTVSS` | polyreactivity (PSR sort gate): low polyreactivity
